Numbers sourced from PubChem BioAssay (NCI).

# Tested on: UACC-257 melanoma
# test: NCI-60 one-dose screen, 48 h
# assay_context: 10 µM unless noted
The panel holds about 83,000 compounds, 20% with a hit somewhere; the sample as a whole holds those more often. Activity calls are given as the source filed them. How the source made its calls: active means growth percent below 10; inactive means the rest.
Parameter call: string, one of true (1) for active, false (0) for inactive

O=C1CSC(c2ccccc2Cl)N1c1nnc(-c2ccncc2)o1 (centres undefined)    false (0)
COc1cc(-c2cc3cnccc3c3nc(N)c4ccncc4c23)cc(OC)c1OC    false (0)
c1cc(C2CCCCC2)ccc1OCCCCCCN1CCNCC1    false (0)
CC1(C)Oc2cc3oc(=O)ccc3cc2C[C@@H]1OCCOS(=O)(=O)c1ccc(C#N)cc1    false (0)
O=C(CN1C(=O)NC(c2ccccc2)(c2ccccc2)C1=O)c1ccc(N2CCCC2)cc1    false (0)
COc1cccc2c1n([O-])c1cccc(OC)c1[n+]2=O    false (0)
CN1C(=O)C(=Cc2coc3ccc(Br)cc3c2=O)C(=O)N(C)C1=O    false (0)
O=C(Nc1ccc(Cl)c(Cl)c1)O/N=C\c1c(Cl)ccc([N+](=O)[O-])c1Cl    true (1)

Okay, now this molecule:
Problem: Hello, I am checking results. What call was entered for COc1ccc2c(N)ncc(C#Cc3cc(C(=O)Nc4ccc(CN5CCN(C)CC5)c(C(F)(F)F)c4)cnc3C)c2c1 ?
Solution: false (0)
